biological target: HDGF PWWP domain;HDGF C140 domain (human;human, UniProt P51858;P51858 1-100;101-240, |); test: PIFQ (Cy3 fluorescence quenching); 1 nM DNA; equal amounts premixed; Hill n=0.50; HDGF assays: 46 mM NaCl, 0.9 mM KCl, 3.3 mM Na2HPO4, 0.66 mM KH2PO4, pH 7.4; at least 1 h on ice; 1-10 nM Cy3 DNA, 10 pM-100 nM protein; RecA dsDNA control at pH 7.5; settings: protein: recombinant;recombinant; copies: 1;1; label: Cy3
Sequence (P51858 1-100, chain 1 of 2): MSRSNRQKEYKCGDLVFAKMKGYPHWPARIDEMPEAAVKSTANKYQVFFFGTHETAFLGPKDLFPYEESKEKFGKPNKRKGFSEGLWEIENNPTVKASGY
Sequence (P51858 101-240, chain 2 of 2): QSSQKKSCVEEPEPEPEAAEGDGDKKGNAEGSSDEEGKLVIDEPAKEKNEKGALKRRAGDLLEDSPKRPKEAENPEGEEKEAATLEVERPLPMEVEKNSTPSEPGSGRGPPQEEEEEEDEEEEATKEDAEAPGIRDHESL
Outcome measure: Kd (nM)
Answers are plain numbers, in nM.

Sample GC-rich dsDNA (dsDNA) DNA 1: TCCTCGCTGCCGTCGGCCA DNA 2: TGGCCGACGGCAGCGAGGA ; Kd observed: 0.45
